Test: Electrophysiological assays in Xenopus oocytes expressing cloned NMDA receptor (NR1A/2C)
Assay type: cell-based
Conditions: Rattus norvegicus, Oocyte
// assign rule met if IC50 falls strictly below 2000 nM, else rule not met (ties count as rule not met)

compound	classification
O=c1[nH]c2c(Br)c(Cl)c(Cl)cc2n(O)c1=O	rule not met
O=c1[nH]c2cc(Cl)c(Cl)cc2n(O)c1=O	rule met
Oc1nc2cc(Cl)c(Cl)c(Cl)c2nc1O	rule met
O=c1[nH]c2c(Br)cc(C(F)(F)F)cc2n(O)c1=O	rule not met
Nc1c(Cl)c(Cl)cc2nc(O)c(O)nc12	rule met
O=c1[nH]c2c(Cl)c(Cl)c(Cl)cc2n(O)c1=O	rule not met
Oc1nc2cc(Cl)c(Cl)cc2nc1O [2,3-DIHYDROXY-6,7-DICHLOROQUINOXALINE]	rule met
O=c1[nH]c2c(Cl)cc(C(F)(F)F)cc2n(O)c1=O	rule not met
Oc1nc2cc(Cl)c(Cl)c(Br)c2nc1O	rule met
O=c1[nH]c2c(Br)cc(Br)cc2n(O)c1=O	rule not met

Please find the next compound below.
[in] Determine if `Oc1nc2cc(Br)cc(Br)c2nc1O` shows IC50 strictly lower than 2000 nM.
[out] rule met

###

Assay: Electrophysiological assays in Xenopus oocytes expressing cloned NMDA receptor (NR1A/2C)
Type: cell-based
Conditions: Rattus norvegicus, Oocyte
pIC50: −log10 of the molar value.
# cutoff 6 applies to pIC50; >= gives satisfied, < gives not satisfied

smiles notation	classification
Oc1nc2cc(Cl)cc(Cl)c2nc1O	satisfied
Oc1nc2cc(C(F)(F)F)cc(Cl)c2nc1O	not satisfied
Oc1nc2cc(C(F)(F)F)cc(Br)c2nc1O	not satisfied
Nc1c(Cl)c(Cl)cc2c1[nH]c(=O)c(=O)n2O	not satisfied

Please find the next compound below.
[in] Given the entry `O=c1[nH]c2c(Cl)cc(Cl)cc2n(O)c1=O` , answer whether its pIC50 meets or surpasses 6.
[out] not satisfied
